target: human CLDN18.2 (human); experiment: cell-based or functional assay
Listing of recorded ADCC Maximum killing (%), PBMC effector cells, NUGC-4 target cells by entry.
Give the number; % is assumed, so skip it.

Use these answered entries as a reference point.
chimeric antibody xi34G6 (antibody, human IgG1, kappa, V domains shown, Mouse variable regions on human IgG1/kappa; defucosylated, expressed in FUT8-knockout CHO-S cells; also called chimeric 34G6) VH: QVQLKESGPDLVAPSQSLSITCTVSGFSLTSYGVHWVRQPPGKGLEWLVVIWSDGSTTYNSALKSRLSISKDNSKSQVFLKMNSLQTDDTAIYYCARHAYYGNSFDYWGQGTTLTVSS VL: DIVMTQSPSSLTVTAGEKVTMSCKSSQSLLNSGNQKSYLTWYQQKPGQPPKLLIYWASTRESGVPDRFTGSGSGTDFTLTISSVQAEDLAVYYCQNVYIFPLTFGAGTKLELKR
40.9
IMAB362 (antibody, human IgG1, kappa, V domains shown, Positive control, prepared in-house; also called Claudiximab; TMAB362 [sic]) VH: QVQLQQPGAELVRPGASVKLSCKASGYTFTSYWINWVKQRPGQGLEWIGNIYPSDSYTNYNQKFKDKATLTVDKSSSTAYMQLSSPTSEDSAVYYCTRSWRGNSFDYWGQGTTLTVSS VL: DIVMTQSPSSLTVTAGEKVTMSCKSSQSLLNSGNQKNYLTWYQQKPGQPPKLLIYWASTRESGVPDRFTGSGSGTDFTLTISSVQAEDLAVYYCQNDYSYPFTFGSGTKLEIKR
29.1
chimeric antibody xi28G3 (antibody, human IgG1, kappa, V domains shown, Mouse variable regions on human IgG1/kappa; defucosylated, expressed in FUT8-knockout CHO-S cells; also called chimeric 28G3) VH: EIQLQQTGPELVKPGASVTISCKTSGYSFTDYLMLWVKQSHGKSLEWIGNINPYYGRTTYNLKFKGKATLTVDRSSSTAYMQLNSLTSEDSAVYYCARDGYSLRNAMDYWGQGTSVTVSS VL: DIVMTQSPYSLSVSTGEKVTMSCKSSQSLFNSGNQKNYLAWYQQKPGQPPKLLIYGASTRESGVPDRFTGSGSGTDFTLTISSVQAEDLALYYCQNAHSYPYTFGGGTKLEIKR
43.3

For chimeric antibody xi22F12 (antibody, human IgG1, kappa, V domains shown, Mouse variable regions on human IgG1/kappa; defucosylated, expressed in FUT8-knockout CHO-S cells; also called chimeric 22F12) VH: QVQLKESGPGLVAPSQSLSITCTVSGFSLTSYGVYWVRQPPGKGLEWLGVIWAGGSTNYNSALMSRLSINKDNSKSQVFLKMNSLQTDDTAMYYCARDRGRLLSMDYWGQGTSVTVSS VL: DIVMTQSPSSLSVSAGEKVTMSCRSSQSLLNSGNQKNYLAWYQQKPGQPPKLLIYGASTRESGVPDRFTGSGSGTDFTLTIGSVQAEDLAVYYCQNVHFFPFTFGSGTKLEIKR , what is its reported ADCC Maximum killing (%), PBMC effector cells, NUGC-4 target cells?
46.1

// query: chimeric antibody xi40F6 (antibody, human IgG1, kappa, V domains shown, Mouse variable regions on human IgG1/kappa; defucosylated, expressed in FUT8-knockout CHO-S cells; also called chimeric 40F6) VH: QVQLKESGPGLVAPSQSLSITCTVSGFSLTSYGVYWVRQSPGKGLEWLGVVWAGGNTNYNSALMSRLSISKDNSKSQVFLKMNSLQTDDTAMYYCARDRGRLLAMDYWGQGTSVTVSS VL: DVVMTQSPSSLSVSAGEKVTMSCKSSQSLLNSGNQKNYLAWYQQKPGQPPKLLIYGASTRESGVPDRFTGSGSGTDFTLTISSVQAEDLAVYYCQNDHFFPFTFGSGTKLEIKR
45.2
